This collection of values is drawn from patent US20260007758A1.

Target: human somatostatin receptor subtype 2 (Homo sapiens)
Construct: expressed in transfected cells
Sequence (P30874 whole entry): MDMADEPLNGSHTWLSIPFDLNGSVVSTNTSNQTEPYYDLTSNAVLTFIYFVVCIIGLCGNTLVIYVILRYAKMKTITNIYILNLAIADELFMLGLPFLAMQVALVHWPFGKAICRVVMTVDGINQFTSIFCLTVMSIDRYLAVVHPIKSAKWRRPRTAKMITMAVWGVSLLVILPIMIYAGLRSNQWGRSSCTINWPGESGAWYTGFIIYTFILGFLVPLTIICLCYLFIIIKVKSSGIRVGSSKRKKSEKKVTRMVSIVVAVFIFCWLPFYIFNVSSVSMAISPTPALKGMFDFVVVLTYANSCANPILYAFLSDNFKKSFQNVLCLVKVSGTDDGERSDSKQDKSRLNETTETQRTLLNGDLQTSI
Test: Functional assay for SSTR2 agonists (HTRF cAMP)
Assay type: cell-based
Conditions: CHO-K1 cells stably expressing human SST2; NKH477-stimulated cAMP; 20 min at 37 C; read-out: hSST2 cAMP Avg EC50
Readings of EC50 for the listed molecules
Record the value in nM, omitting the unit from your answer.

CC[C@H](C)[C@@H]([C@@H](CC(=O)N1CCC[C@H]1[C@H](OC)[C@@H](C)C(=O)N[C@H](C)[C@@H](O)c1ccccc1)OC)N(C)C(=O)[C@@H](NC(=O)[C@H](C(C)C)N(C)C(=O)OCc1ccc(NC(=O)[C@H](CCCNC(N)=O)NC(=O)[C@@H](NC(=O)CCOCCC(=O)NCCNc2ncc(-c3cc(C)cc(F)c3)c(N3CCC(N)CC3)c2-c2nc3ccc(Cl)cc3[nH]2)C(C)C)c(O[C@@H]2O[C@H](C(=O)NCC(=O)NCCCCCCO[PH](=O)OC3CCC(c4ccccc4)(c4ccccc4)CC3)[C@@H](O)[C@H](O)[C@H]2O)c1)C(C)C (some centres unmarked)	0.55

We now examine a further molecule.
Data request: Return the recorded EC50 value; entry: CC[C@H](C)[C@@H]([C@@H](CC(=O)N1CCC[C@H]1[C@H](OC)[C@@H](C)C(=O)N[C@H](C)[C@@H](O)c1ccccc1)OC)N(C)C(=O)[C@@H](NC(=O)[C@H](C(C)C)N(C)C(=O)OCc1ccc(NC(=O)[C@H](CCCNC(N)=O)NC(=O)[C@@H](NC(=O)c2cc(NC(=O)CCOCCC(=O)NCCNc3ncc(-c4cc(C)cc(F)c4)c(N4CCC(N)CC4)c3-c3nc4ccc(Cl)cc4[nH]3)cc(C(=O)NCC(=O)O)c2)C(C)C)cc1)C(C)C
Data returned: 0.033
